Entries and their inhibition rate, Results (%) LLC values follow.
# Tested on: LLC mouse Lewis lung carcinoma
# assay_name: In vitro inhibition rate to tumor cells (MTT), LLC
# Assay type: cell-based
# test_context: 50 μg/ml; Table 2 (repeated screening)

compound	unit_abbreviation	inhibition rate, Results (%) LLC
CC(C)C1CC23OC1(O)CC(C)(Br)C2CCC3C (centres unmarked) [Compound 34, Curcumol monobromide without double bond]	%	−11.22
COC12CC(=CBr)C3CCC(C)C3(CC1C(C)C)O2 (centres unmarked) [Compound 26, Curcumol methyl ether bromide]	%	−11.77
CCCCNC=C1CC2(OC)OC3(CC2C(C)C)C(C)CCC13 (centres unmarked) [Compound 27, Curcumol methyl ether n-butyl amine]	%	−10.00
CC(C)C1CC23OC1(O)CC(C)(N1CCNCC1)C2CCC3C (centres unmarked) [Compound 43, Curcumol piperazine without double bond]	%	−11.23
CC(C)C1CC23OC1(O)CC(CN1CCNCC1)(N1CCNCC1)C2CCC3C (centres unmarked) [Compound 41, Curcumol bispiperazine]	%	23.65
CC(C)C1CC23OC1(O)CC(CO[N+](=O)[O-])(O[N+](=O)[O-])C2CCC3C (centres unmarked) [Compound 31, Curcumol dinitrate]	%	1.25
C=C1CC2(OS(=O)(=O)O)OC3(CC2C(C)C)C(C)CCC13 (centres unmarked) [Compound 20, Curcumol sulfonate]	%	9.37
CCCCNC=C1CC2(O)OC3(CC2C(C)C)C(C)CCC13.Cl (centres unmarked) [Compound 14, Curcumol n-butyl amine hydrochloride]	%	−14.29
